This section presents binders with their documented EC50 values.
Molecular target: T1, human cell-surface M-CSF on stably transfected CHO cells (human, UniProt P09603 33-554)
T1 construct: also called csM-CSF
T1 sequence: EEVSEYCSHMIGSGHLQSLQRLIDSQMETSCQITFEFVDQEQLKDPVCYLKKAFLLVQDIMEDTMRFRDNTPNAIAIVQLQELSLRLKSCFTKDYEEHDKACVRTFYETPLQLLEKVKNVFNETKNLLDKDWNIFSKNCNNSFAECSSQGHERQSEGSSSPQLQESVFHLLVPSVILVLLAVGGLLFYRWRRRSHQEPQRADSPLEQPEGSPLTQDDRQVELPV
Test: FACS, CHO cells stably transfected with M-CSF (n = 3)
Property: EC50

>>> val("Caline, IgG1_D265A (antibody, V domains shown, tested as IgG1 with D265A in the Fc (EU index)) VH: QVQLQQSGPGLVKPSQTLSLTCAISGDSVSSNSAAWNWIRQSPSRGLEWLGRTYYRSKWKHEYAMSVKSRITINPDTSKNQFSLQLNSVTPEDTAVYYCARDRYYYSAFDYWGQGTLVTVSS VL: QSALTQPASVSGSPGQSITISCTGTSSDVGGYNSVSWYQQHPGKAPKLMIYAVSNRPSGVSNRFSGSKSGNTASLTISGLQAEDEADYYCASYDERFTRVFGGGTKLTVLG")
"9.8 nM"
>>> val("Camille, IgG1_D265A (antibody, V domains shown, tested as IgG1 with D265A in the Fc (EU index)) VH: QVQLQQSGPGLVKPSQTLSLTCAISGESVSTSSAAWNWIRQSPSRGLEWLGRTYYRSKWKHEYAVSVKSRITINPDTSKNQFSLQLNSVTPEDTAVYYCARDRYYYSAFDYWGQGTLVTVSS VL: QSALTQPASVSGSPGQSITISCTGTSSDVGGYNSVSWYQQHPGKAPKLLIYAVSNRPSGVSNRFSGSKSGNTASLTISGLQAEDEADYYCASYDERFTRVFGGGTKLTVLG")
"6.1 nM"
>>> val("Madeleine, IgG1_D265A (antibody, V domains shown, tested as IgG1 with D265A in the Fc (EU index)) VH: QVQLQQSGPGLVKPSQTLSLTCAISGDSVSSNSAAWNWIRQSPSRGLEWLGRTYYRSKWKKEYAQSVKSRITINPDTSKNQFSLQLNSVTPEDTAVYYCARDRYYYSAFDYWGQGTLVTVSS VL: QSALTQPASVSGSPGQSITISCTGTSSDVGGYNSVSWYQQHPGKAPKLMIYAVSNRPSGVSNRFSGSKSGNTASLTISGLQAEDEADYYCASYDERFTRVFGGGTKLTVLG")
"6.4 nM"

Each recorded value in this set is attributed to patent US20180057581A1.
